Origin of measurements: the nanobody polyreactivity screen of Harvey et al. (2022)

# Assay Procedure: yeast display, Sf9 membrane polyspecificity reagent, FACS + sequencing; frameworks hold sequencing errors
Readout Label: polyreactivity (PSR sort gate)

Seq String	Readout Label	Assay Value
QVQLVESGGCVVQAGGSLRLICAASGRTFGRNVMGWYRQAPGKEMELVAAISRSGGSTYYADSVKGRFTISRDNAKNTVYLQMNSLKPEDTAVYYCAAYSVGDYYWGQGTQVTVSS	polyreactivity (PSR sort gate)	high polyreactivity
QVQLVESGGGLVQAGGSLRLSCAASGGTFEYYPMGWYRQAPGKETEMVAGITWGGVSTYYADSVKGRFTLSRDTAKNTVYLQMNSLKPEDTSVFYCAAAYSQDNVWWYYYWGQGTQVTVSS	polyreactivity (PSR sort gate)	high polyreactivity
